Tested on: HT-29
Procedure details: Cytotoxicity against human HT-29 cells at 10 uM after 48 hrs by SRB assay
Type: functional
Assay setup: HT-29, 48 h, read-out: GI
Reported inhibition of growth at 10 µM by item:
Report as a plain number; the unit % is understood.

Solved entries:
>>> quantitative_readout("Cc1nc2cc(Nc3nc(Nc4ccc(F)cc4)nc(Nc4ncccn4)n3)ccc2n1Cc1ccccc1")
14.8
>>> quantitative_readout("Cc1nc2cc(Nc3nc(NCCN)nc(Nc4ccc(F)cc4)n3)ccc2n1Cc1ccccc1")
64.9

Okay, now this compound:
Reported inhibition of growth at 10 µM for Cc1nc2cc(Nc3nc(Nc4ccc(F)cc4)nc(-c4ccc(Cl)cc4)n3)ccc2n1Cc1ccccc1 was 44.2
